- Tested on: ITK
- CONDITION DETAILS: concentration: 1 μM,replicates: in singlicate; n = 1;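 further: KINOMEscan kinase panel screen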
The following compounds are shown together with reported %Inh values.
The answer consists of two parts: a number and, after it, its unit.

Examples from the recorded data:
O=C(Nc1ccccc1)c1cccc(Oc2ccc3nccn3n2)c1
0%
COc1cc(Nc2nccc(N3CCC(NC(=O)c4cccc(C#N)c4)C3)n2)cc(OC)c1OC (stereo not drawn)
0%

Entry under review: CC(=O)Nc1ccc(-c2cc3ncnc(SCC(=O)O)c3s2)cc1 . Reported %Inh? 2%

* * *

- System: YSK4
- Construct: gene MAP3K19
- CONDITION DETAILS: concentration: 1 μM,replicates: in singlicate; n = 1
The following compounds are shown together with reported %Inh values.
Express it in %; write the number only.

Examples from the recorded data:
C[C@@H](Oc1cc(-n2cnc3ccc(-c4ccncc4)cc32)sc1C(N)=O)c1ccccc1Cl
68
Cn1ccc2ncnc(Oc3ccc(NC(=O)Nc4ccnc(C(F)(F)F)c4)c(Cl)c3)c21
14
COc1cccc(OC)c1C(=O)Nc1cccc(-c2nn3ccccc3c2-c2ccnc(Nc3cccc(F)c3)n2)c1
0
COC(=O)c1cccc(NC(=O)NC2CCN(c3ccnc(Nc4cc(OC)c(OC)c(OC)c4)n3)C2)c1 (centres unmarked)
0

# context switch: different compound, same %Inh
Under YSK4: %Inh value of C[C@@H]1CCN(C(=O)N2CCCC2)C[C@@H]1N(C)c1ncnc2[nH]ccc12 ? 82
